Each item that follows carries a reported ED50.
System: mouse
Test: Spontaneous motor activity in the mouse
Type: in vivo
Settings: Mus musculus, po, read-out: Spontaneous motor activity, 50% effective dose
Please state the figure in mg/kg; there is no need to write the unit.

{"Compound": "O=C([O-])C1N=C(c2ccccc2)c2cc(Cl)ccc2NC1=O.[K+] (centres unmarked)", "ED50, mg/kg": 10}

The reported ED50 of the compound O=C(O)C1N=C(c2ccccc2)c2cc([N+](=O)[O-])ccc2NC1=O.[K+].[K+].[OH-].[OH-] (centres unmarked) was 5

Record CN1C(=O)CN=C(c2ccccc2)c2cc(Cl)ccc21 [Diazepame, reference compound] , field ED50: 5

GET /value?item= NC(=O)C(N=C(c1ccccc1)c1cc(Cl)ccc1N)C(=O)O (centres unmarked) &field=ED50 returns 10

ED50 in this record for O=C(O)C1N=C(c2ccccc2)c2cc(Cl)ccc2NC1=O.[K+].[K+].[OH-].[OH-] (centres unmarked) : 5

What the record says about CCOC(=O)C1N=C(c2ccccc2)c2cc(Cl)ccc2NC1=O (centres unmarked) : ED50 is 100
